Molecular target: T1, HepG2 cells (which express ASGR1) (Homo sapiens, UniProt P07306)
T1 construct: endogenous in cells; host or cells: HepG2
T1 sequence (P07306 1-291): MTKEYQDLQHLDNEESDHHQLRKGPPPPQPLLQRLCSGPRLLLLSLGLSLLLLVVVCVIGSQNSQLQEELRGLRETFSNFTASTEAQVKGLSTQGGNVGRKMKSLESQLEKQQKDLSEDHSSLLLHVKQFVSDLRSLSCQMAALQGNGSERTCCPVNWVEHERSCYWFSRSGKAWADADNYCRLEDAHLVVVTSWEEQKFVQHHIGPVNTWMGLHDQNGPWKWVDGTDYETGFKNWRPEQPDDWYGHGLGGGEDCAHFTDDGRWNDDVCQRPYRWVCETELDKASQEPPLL
Assay: Guava HepG2 cell binding screen of anti-ASGR1 mAbs
Conditions: humanized L4L clones; Good / Poor
measured parameter: Guava HepG2 Screen

molecule	assay result
hzL4L-2: humanized L4L clone: "reduction in percent purity ... seen with the chimeric and hzL4L-1, -2 and -6" (antibody, V domains shown) VH: QVQLQESGPGLVKPSQTLSLTCTVSGGSITSDYAWNWIRQHPGKGLEWIGYISYSGSTRYNPSLKSRISITRDTSKNQFSLKLSSVTAADTAVYYCARRYRYDEGYGMDYWGQGTTVTVSS VL: DIQMTQSPSSLSASVGDRVTITCRASENIYSNLAWYQQKPGKAPKLLIYAATNLADGVPSRFSGSGSGTDFTLTISSLQPEDFATYYCQHFWGTPPWTFGGGTKVEIK	Good
hzL4L-6: humanized L4L clone: "reduction in percent purity ... seen with the chimeric and hzL4L-1, -2 and -6" (antibody, V domains shown) VH: QVQLQESGPGLVKPSQTLSLTCTVSGYSITSDYAWNWIRQHPGKGLEWIGYISYSGSTRYNPSLKSRVTITRDTSKNQFSLKLSSVTAADTAVYYCARRYRYDEGYGMDYWGQGTTVTVSS VL: DIQMTQSPSSLSASVGDRVTITCRASENIYSNLAWYQQKPGKAPKLLIYAATNLADGVPSRFSGSGSGTDFTLTISSLQPEDFATYYCQHFWGTPPWTFGGGTKVEIK	Good
hzL4L-3 (antibody, V domains shown) VH: QVQLQESGPGLVKPSQTLSLTCTVSGYSITSDYAWNWIRQHPGKGLEWIGYISYSGSTRYNPSLKSRISITRDTSKNQFSLKLSSVTAADTAVYYCARRYRYDEGYGMDYWGQGTTVTVSS VL: DIQMTQSPSSLSASVGDRVTITCRASENIYSNLAWYQQKPGKAPKLLIYAATNLADGVPSRFSGSGSGTDFTLTISSLQPEDFATYYCQHFWGTPPWTFGGGTKVEIK	Good
hzL4L-4 (antibody, V domains shown) VH: QVQLQESGPGLVKPSQTLSLTCTVSGYSITSDYAWNWIRQHPGKGLEWIGYISYSGSTRYNPSLKSRVTISVDTSKNQFSLKLSSVTAADTAVYYCARRYRYDEGYGMDYWGQGTTVTVSS VL: DIQMTQSPSSLSASVGDRVTITCRASENIYSNLAWYQQKPGKAPKLLIYAATNLADGVPSRFSGSGSGTDFTLTISSLQPEDFATYYCQHFWGTPPWTFGGGTKVEIK	Poor
hzL4L-5 (antibody, V domains shown) VH: QVQLQESGPGLVKPSQTLSLTCTVSGYSISSDYAWNWIRQHPGKGLEWIGYISYSGSTRYNPSLKSRISITRDTSKNQFSLKLSSVTAADTAVYYCARRYRYDEGYGMDYWGQGTTVTVSS VL: DIQMTQSPSSLSASVGDRVTITCRASENIYSNLAWYQQKPGKAPKLLIYAATNLADGVPSRFSGSGSGTDFTLTISSLQPEDFATYYCQHFWGTPPWTFGGGTKVEIK	Good
hzL4L-8 (antibody, V domains shown) VH: QVQLQESGPGLVKPSQTLSLTCTVSGYSITSDYAWNWIRQHPGKGLEWIGYISYSGSTRYNPSLKSRISISVDTSKNQFSLKLSSVTAADTAVYYCARRYRYDEGYGMDYWGQGTTVTVSS VL: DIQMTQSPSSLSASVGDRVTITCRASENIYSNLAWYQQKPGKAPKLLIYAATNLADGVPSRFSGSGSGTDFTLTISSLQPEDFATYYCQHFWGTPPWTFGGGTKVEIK	Poor
hzL4L-7: "humanized anti-ASGR1 antibodies hzL4L-7 and hzL4L-14 as compared to parent mouse anti-ASGR1 antibody L4L" (antibody, V domains shown) VH: QVQLQESGPGLVKPSQTLSLTCTVSGYSISSDYAWNWIRQHPGKGLEWIGYISYSGSTRYNPSLKSRVTITRDTSKNQFSLKLSSVTAADTAVYYCARRYRYDEGYGMDYWGQGTTVTVSS VL: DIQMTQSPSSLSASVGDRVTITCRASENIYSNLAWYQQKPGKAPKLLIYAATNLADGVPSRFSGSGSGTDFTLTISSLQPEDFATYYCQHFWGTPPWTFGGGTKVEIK	Good
hzL4L-9 (antibody, V domains shown) VH: QVQLQESGPGLVKPSQTLSLTCTVSGYSISSDYAWNWIRQHPGKGLEWIGYISYSGSTRYNPSLKSRISISVDTSKNQFSLKLSSVTAADTAVYYCARRYRYDEGYGMDYWGQGTTVTVSS VL: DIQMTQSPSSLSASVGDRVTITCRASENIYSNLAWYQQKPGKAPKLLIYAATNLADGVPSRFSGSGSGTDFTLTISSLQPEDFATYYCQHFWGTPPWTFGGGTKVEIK	Poor

The reported measurements were obtained from patent US20210130473A1.
